tested on: Pseudomonas aeruginosa PAO 1; experiment: Antibacterial activity, agar-dilution MIC, organism No. 17; format: cell-based; conditions: Pseudomonas aeruginosa, PAO1; Organism No. 17, bouillon-agar; read-out: Minimum Inhibitory Concentration
Assignment: determine reported MIC for the given compounds.

// below: answered compounds
[C-]#[N+]C12CC3(/C=C/C(=O)OCc4cc([N+](=O)[O-])ccc4O)OC3C1O2 (stereo not drawn)	> 200 µg/mL
[C-]#[N+]C12CC3(/C=C/C(=O)Nc4ccccc4)OC3C1O2 (stereo not drawn)	> 200 µg/mL
[C-]#[N+]C12CC3(/C=C/C(=O)Nc4ccc(I)cc4)OC3C1O2 (stereo not drawn)	> 200 µg/mL
[C-]#[N+]C12CC3(/C=C/C(=O)Nc4cccc([N+](=O)[O-])c4)OC3C1O2 (stereo not drawn)	> 200 µg/mL

Batch: MIC for all items listed.
1. [C-]#[N+]C12CC3(/C=C/C(=O)Nc4ccccc4O)OC3C1O2 (stereo not drawn)
2. [C-]#[N+]C12CC3(/C=C/C(=O)OCc4ccc([N+](=O)[O-])cc4)OC3C1O2 (stereo not drawn)
3. [C-]#[N+]C12CC3(/C=C/C(=O)N[C@@H](CC(=O)OCc4ccccc4)C(=O)OCc4ccccc4)OC3C1O2 (stereo partly drawn)
4. [C-]#[N+]C12CC3(/C=C/C(=O)OCc4c(C)cc(C)cc4C)OC3C1O2 (stereo not drawn)
5. [C-]#[N+]C12CC3(/C=C/C(=O)Nc4ccc5c(c4)CCC5)OC3C1O2 (stereo not drawn)
6. [C-]#[N+]C12CC3(/C=C/C(=O)N4CCC[C@H]4C(=O)OCc4ccccc4)OC3C1O2 (stereo partly drawn)

A:
1: > 200 µg/mL; 2: > 100 µg/mL; 3: > 200 µg/mL; 4: > 100 µg/mL; 5: > 200 µg/mL; 6: > 200 µg/mL
